molecular target: T1, Peptide-3 (cysteine pairing not given here; also: biotinylated, site not given here); test: ELISA, Fab on captured biotin-peptide
T1 peptide: IDFCMLYNWPICAG
Where no end group is shown, it is not given here.
measured metric: log10 of EC50 (log10 of the value in nM)
Could you please treat all values as log10 of EC50 in nM?

TBD-11 (HC R98A) (Fab, V domains shown, Fab; also called HC R98A mutant) VH: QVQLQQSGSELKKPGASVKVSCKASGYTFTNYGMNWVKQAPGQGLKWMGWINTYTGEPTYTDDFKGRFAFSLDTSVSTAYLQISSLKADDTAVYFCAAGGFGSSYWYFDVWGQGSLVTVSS VL: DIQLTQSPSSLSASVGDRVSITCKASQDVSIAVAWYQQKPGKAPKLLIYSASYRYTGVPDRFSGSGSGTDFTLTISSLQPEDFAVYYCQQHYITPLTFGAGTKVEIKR : 2.47
TBD-1 wt (Fab, V domains shown, Fab; the heavy chain entry is VH-CH1; also called wild-type anti-TROP2 Fab (hRS7); TROP2 Fab) VH: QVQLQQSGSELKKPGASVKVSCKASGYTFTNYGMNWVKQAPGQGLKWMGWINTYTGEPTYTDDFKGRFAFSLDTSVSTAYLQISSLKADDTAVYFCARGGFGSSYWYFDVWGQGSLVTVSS VL: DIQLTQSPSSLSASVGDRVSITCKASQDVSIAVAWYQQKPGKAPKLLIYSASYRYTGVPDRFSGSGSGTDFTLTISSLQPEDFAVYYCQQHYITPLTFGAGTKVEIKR : 2.21

// query log10 of EC50 value for entry TBD-22 (HC D109A) (Fab, V domains shown, Fab; also called HC D109A mutant) VH: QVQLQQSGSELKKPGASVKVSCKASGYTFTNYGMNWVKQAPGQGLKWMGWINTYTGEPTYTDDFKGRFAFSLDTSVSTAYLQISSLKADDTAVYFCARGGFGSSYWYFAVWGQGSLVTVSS VL: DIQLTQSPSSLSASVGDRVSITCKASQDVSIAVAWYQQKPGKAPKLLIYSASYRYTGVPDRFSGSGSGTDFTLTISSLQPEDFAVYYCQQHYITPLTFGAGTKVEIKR
0.48
